Target: human Gal3-His (Homo sapiens, UniProt P17931)
Sequence (P17931 whole entry): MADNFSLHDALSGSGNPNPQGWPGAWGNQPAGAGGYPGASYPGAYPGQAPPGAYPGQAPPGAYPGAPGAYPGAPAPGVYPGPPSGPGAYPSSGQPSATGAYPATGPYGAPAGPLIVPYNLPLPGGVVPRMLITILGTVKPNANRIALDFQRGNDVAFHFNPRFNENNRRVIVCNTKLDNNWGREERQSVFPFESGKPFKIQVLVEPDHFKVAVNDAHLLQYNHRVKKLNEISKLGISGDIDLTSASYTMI
Assay: Antibody binning by biolayer interferometry (Gator)
Format: binding
Details: antibody competition
Experimental: To determine whether Gal3-binding antibodies with Gal3-TIM3 blocking activity bind to the same or overlapping regions of the Gal3 molecule, antibody binning assays were performed to assess the ability of antibodies to simultaneously bind Gal3. […]
In this section we review reported Bin values for a set of molecules.
Form: value (number only, do not type unit).

Ask | What measured Bin goes with 24D12.2H9: murine anti-Gal3 antibody (antibody, V domains shown, VH of 24D12.2H9; VL of 24D12.2H9, murine anti-Gal3 antibody) VH: QVQLKQSGPGLVQPSQSLSITCTVSGFSLTSYGVHWVRQAPGKGLEWLGVIWSGGSTDYNAAFMSRLSISKDNSKSQVFFKMNSLQADDTAIYYCAKSPDGYDVAWFGYWGQGTLVTVSA VL: DIVMTQSHKFMSTSVGDRVSITCKASQDVRTAVAWYQQKPGQSPKLLIYWASTRHTGVPDRFTGSGSGTDFTLTLSNVQSEDLADYFCQQYSSYPWTFGGGTKLEIK ?
Reply | 11

API: the following record is the query input.
Ask | What measured Bin goes with 846.1F5: murine anti-Gal3 antibody (antibody, V domains shown) VH: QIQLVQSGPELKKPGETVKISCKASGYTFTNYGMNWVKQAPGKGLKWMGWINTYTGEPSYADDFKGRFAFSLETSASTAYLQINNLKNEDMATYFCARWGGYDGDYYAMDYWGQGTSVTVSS VL: NIMMTQSPSSLAVSAGEKVTMSCKSSQSVLYSSNQKNYLAWYQQKPGQSPKLLIYWASTRESGVPDRFTGSGSGTDFTLTISSVQPEDLAVYYCHQYLSSLTFGAGTKLELK ?
Reply | 3

All figures here come from patent US20220380473A1.
